Known pIC50 of a selection of compounds
molecular target: hACSL5 (Homo sapiens (Human), UniProt Q9ULC5); experiment: Human ACSL5 coupled enzyme Amplex Red assay; format: biochemical; settings: read-out: hACSL5 IC50
Sequence (Q9ULC5 33-683): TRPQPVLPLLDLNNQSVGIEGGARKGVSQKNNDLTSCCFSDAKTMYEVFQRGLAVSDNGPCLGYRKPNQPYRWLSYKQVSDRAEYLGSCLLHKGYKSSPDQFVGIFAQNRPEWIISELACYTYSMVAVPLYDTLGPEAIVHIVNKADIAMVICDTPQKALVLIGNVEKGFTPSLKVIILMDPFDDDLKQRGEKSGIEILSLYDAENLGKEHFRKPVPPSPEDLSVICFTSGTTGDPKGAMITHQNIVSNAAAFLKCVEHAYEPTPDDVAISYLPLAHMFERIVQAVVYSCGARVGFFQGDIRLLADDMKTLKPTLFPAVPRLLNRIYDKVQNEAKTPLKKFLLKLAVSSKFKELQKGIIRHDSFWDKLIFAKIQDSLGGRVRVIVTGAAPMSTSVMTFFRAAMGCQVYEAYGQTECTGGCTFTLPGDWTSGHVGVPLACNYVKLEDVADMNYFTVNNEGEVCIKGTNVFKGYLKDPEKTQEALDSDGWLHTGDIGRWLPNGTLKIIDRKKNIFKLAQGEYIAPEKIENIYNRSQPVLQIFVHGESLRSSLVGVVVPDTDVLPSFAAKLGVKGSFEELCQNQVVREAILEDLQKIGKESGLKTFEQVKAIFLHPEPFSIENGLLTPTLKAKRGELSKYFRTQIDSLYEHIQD
pIC50: −log10 of the molar value.

compound: CC[C@@H](Oc1ccc(C(=O)NS(=O)(=O)c2ccc(OCCN(C)C)cc2)cc1C(F)(F)F)c1ccc(OC2CC(OC)C2)cn1 (stereo partly shown)
experimental_system: hACSL5 (Homo sapiens (Human), UniProt Q9ULC5)
experimental_endpoint: pIC50
recorded_result: 6.30 to 7.00
--
compound: CC[C@@H](Oc1ccc(C(=O)NS(=O)(=O)N2CCC(OC3CCN(C)CC3)CC2)c(F)c1F)c1cc(OCC2CC2)ccn1
experimental_system: hACSL5 (Homo sapiens (Human), UniProt Q9ULC5)
experimental_endpoint: pIC50
recorded_result: 6.30 to 7.00
--
compound: CC[C@@H](Oc1ccc(C(=O)NS(=O)(=O)c2ccc(OCCN3CCCC3)cc2)c(F)c1F)c1ccc(OCC2CC2)cn1
experimental_system: hACSL5 (Homo sapiens (Human), UniProt Q9ULC5)
experimental_endpoint: pIC50
recorded_result: > 7.00

Would you kindly look at the next entry?
Prompt: Item CCOc1ccc(C(C)Oc2ccc(C(=O)NS(=O)(=O)C3CCNCC3)c(F)c2F)nc1 (stereo not shown) : provide pIC50
Completion: < 6.30
